System: SARS-CoV-2
Assay type: cell-based
Details: Vero E6 cells, tested range 80 nM to 10 μM, two repeats
Measured Parameter: concentration at which SARS-CoV-2-induced CPE was completely abolished (µM)
Give bare numbers, in µM.

These solved cases illustrate the format of a correct answer.
CC(C)[C@H](NC(=O)OCc1ccccc1)C(=O)N[C@@H](CC1CCCCC1)C(=O)N[C@H](C=O)C[C@@H]1CCNC1=O [MPI5] | 5
O=C[C@H](C[C@@H]1CCNC1=O)NC(=O)[C@H](CC1CCCCC1)NC(=O)c1cc2ccccc2[nH]1 [11a, reference compound] | 10

Item under review: O=C[C@H](C[C@@H]1CCNC1=O)NC(=O)[C@H](Cc1ccccc1)NC(=O)/C=C/c1ccc(Cl)cc1F [MPI2] . Reported concentration at which SARS-CoV-2-induced CPE was completely abolished?
10
